System: GCaMP5-expressing T. gondii
Construct: whole extracellular parasites expressing GCaMP5 Ca2+ sensor
Parameters: species or system GCaMP5-expressing Toxoplasma gondii, extracellular; GCaMP5 fluorescence (cytosolic Ca2+) after 100 uM zaprinast in compound-pretreated extracellular parasites, background-subtracted, relative to zaprinast alone
Conditions: 100 uM zaprinast stimulation; 10 min pretreatment; mean of two replicates; 0.23 h
fold change in fluorescence relative to zaprinast alone values by entry
No unit in the answer, please; the number alone is enough.

Consider the worked cases shown below.
1. c1ccc(-c2ccnc3[nH]ccc23)cc1 :: 1.319
2. COc1ccc2cc(-c3c(-c4ccncc4)nc(-c4ccc([S+](C)[O-])cc4)n3C)ccc2c1 (stereo not shown) :: 1.038
3. O=C1NC(=O)C(c2ccc(Cl)cc2)=C1Nc1cccc(Cl)c1 :: 0.9895
4. Fc1ccc(-c2ncn(C3CCNCC3)c2-c2ccnc(Nc3ccccc3)n2)cc1 :: 0.4937
5. CCn1c(-c2nonc2N)nc2c(C#CCN)ncc(OCCCN)c21 [GSK561866B] :: 1.218

Input line: Tell me measured fold change in fluorescence relative to zaprinast alone for COc1cccc2c(-c3ccncc3)c(-c3ccc(F)cc3)nn12 [GW468513X] please.
Output line: 0.06975

Input line: Report measured fold change in fluorescence relative to zaprinast alone; entry is Cc1ccc(C)c(NC(=O)NCCNc2ccnc(Nc3ccc(F)cc3)n2)c1 [GSK1379878A]
Output line: 1.583
